system: UACC-257 melanoma; assay: NCI-60 one-dose screen, 48 h; conditions: 10 µM unless noted
Compounds without any hit were thinned out: in the full panel of roughly 83,000, 20% have a hit. Calls of active or inactive are those of the source. Rule for the calls: active = growth percent below 10; inactive = the rest.
Labels: 1 (yes) (active), 0 (no) (inactive)

> print(dat)
                                    compound  class.assignment
 1  CS(=O)(=O)Nc1cc(-c2ccc3ncc(C#N)c(NCc4cccc(F)c4)c3c2)cnc1Cl           1 (yes)
 2  O=C(NNc1nc2cc(F)c(F)cc2n2c(CN3CC4CNCC4C3)ccc12)c1cnccn1 (stereo not given)           1 (yes)
 3  COc1cccc(N2CCN(c3ncnc4c3[nH]c3ccc(F)cc34)C[C@H]2C)c1            0 (no)
 4  CCn1c(SCC(=O)Nc2cccc(C(=O)/C=C/c3ccccc3Cl)c2)nc2ccccc2c1=O            0 (no)
 5  O=c1[nH]c2ccccc2cc1CSc1ccccc1Nc1nccc(-c2ccc(Cl)cc2)n1            0 (no)
 6  O=S(=O)(NCCNc1nccc(-n2cnc3ccccc32)n1)c1ccc(C(F)(F)F)cc1            0 (no)
 7  O=C(CN1CCN(c2cc(=O)[nH]c3ccc(F)cc23)CC1)Nc1ccc(Cl)cc1            0 (no)
 8  CC1=CC(=O)C2=C(C)CC(OC(=O)CCc3ccccc3)[C@@H]3[C@H](OC(=O)[C@@H]3C)[C@@H]12 (stereo not given in full)            0 (no)
 9  COc1ccc(NC(=O)CSc2nnc(-c3ccc4nc(-c5ccc(OC)c(OC)c5)[nH]c4c3)o2)cc1OC            0 (no)
10  CCc1cccc2c3c(sc12)C(c1ccc(OC)cc1)C(C#N)=C(/N=C/c1ccc(Cl)cc1)O3 (stereo not given)            0 (no)
11  Cc1ccc(NC(=O)c2ccc(CN3CCN(C)CC3)cc2)cc1Oc1ccc(-c2[nH]nc3ncnc(N)c23)cc1            0 (no)
12  CNc1ncc2cc(-c3ccc(-c4ncccc4F)cc3Cl)c(=O)n(CC3OCC(N)CO3)c2n1 (stereo not given)            0 (no)
13    O=C1/C(=C/C=C/c2ccco2)SC(=S)N1C1CCCCC1            0 (no)
14  CCN(CC)c1ccc2c(c1)Oc1nc(N)c(C#N)c(N)c1C2Sc1ccc(F)cc1 (stereo not given)           1 (yes)
15  N#C/C(=C\c1ccc(-c2ccc(Cl)cc2Cl)o1)c1ccc(F)cc1            0 (no)
16  COc1cc(OC)c(/C=C/S(=O)(=O)Cc2ccc(OC)c(NC(=O)CCC(=O)NO)c2)c(OC)c1            0 (no)
17  Cc1nn(-c2ccccc2)c2ncnc(N/N=C/c3ccccc3O)c12           1 (yes)
18  CC(C)(C)c1ccc(C(=O)Nc2nc3ccc(O)cc3s2)cc1            0 (no)
19  Cc1ccc(-c2nn(-c3ccccc3)cc2/C=C/C(=O)c2ccc(NC(=O)CCCCCCC(=O)NO)cc2)cc1            0 (no)
20  Cc1ccc2sc3c(c2c1)OC(N)=C(C#N)C3c1ccc(Cl)cc1 (stereo not given)            0 (no)
21  O=C(c1ccc(O)cc1)[C@@H]1CN[C@@]2(C(=O)Nc3ccccc32)[C@H]1c1ccc(F)cc1            0 (no)
22  C=C(C)[C@@H]1CC[C@]2(COCCCNCCC#N)CC[C@]3(C)[C@H](CC[C@@H]4[C@@]5(C)CC[C@H](OCCCNCCC#N)C(C)(C)[C@@H]5CC[C@]43C)[C@@H]12            0 (no)
23  O=C(NCc1ncc[nH]1)c1ccc(-c2nc3ccc4[nH]ncc4c3c3c2CCCC3)cc1            0 (no)
24  O=C1Nc2ccccc2/C1=C/c1ccc(COCC2CO2)n1-c1ccc(O)cc1 (stereo not given)            0 (no)
25  O=S(=O)(NCCCNc1nccc(-c2[nH]c(-c3ccccc3)nc2-c2ccc(Cl)c(O)c2)n1)c1cccc(F)c1            0 (no)
26  NC(N)=Nc1ccc(Oc2cccc(Nc3ccc(Cl)c(C(F)(F)F)c3)c2)cc1            0 (no)
27  COc1ccc(COc2ccc(/C=C3\C(=O)Nc4ccccc43)cc2OC)cc1            0 (no)
28   NS(=O)(=O)c1ccc(-n2cc(CN3CCCCC3)nn2)cc1            0 (no)
29  COc1ccc(NC2=C(Cl)C(=O)c3nc(C)ccc3C2=O)cc1OC            0 (no)
30  O=C(Nc1ccc(Br)cc1)Nc1nc2ccc([N+](=O)[O-])cc2s1           1 (yes)
